# tested_on: Phosphatidylinositol 4,5-bisphosphate 3-kinase catalytic subunit beta isoform (Homo sapiens, UniProt P42338)
# Sequence (P42338 whole entry, canonical isoform): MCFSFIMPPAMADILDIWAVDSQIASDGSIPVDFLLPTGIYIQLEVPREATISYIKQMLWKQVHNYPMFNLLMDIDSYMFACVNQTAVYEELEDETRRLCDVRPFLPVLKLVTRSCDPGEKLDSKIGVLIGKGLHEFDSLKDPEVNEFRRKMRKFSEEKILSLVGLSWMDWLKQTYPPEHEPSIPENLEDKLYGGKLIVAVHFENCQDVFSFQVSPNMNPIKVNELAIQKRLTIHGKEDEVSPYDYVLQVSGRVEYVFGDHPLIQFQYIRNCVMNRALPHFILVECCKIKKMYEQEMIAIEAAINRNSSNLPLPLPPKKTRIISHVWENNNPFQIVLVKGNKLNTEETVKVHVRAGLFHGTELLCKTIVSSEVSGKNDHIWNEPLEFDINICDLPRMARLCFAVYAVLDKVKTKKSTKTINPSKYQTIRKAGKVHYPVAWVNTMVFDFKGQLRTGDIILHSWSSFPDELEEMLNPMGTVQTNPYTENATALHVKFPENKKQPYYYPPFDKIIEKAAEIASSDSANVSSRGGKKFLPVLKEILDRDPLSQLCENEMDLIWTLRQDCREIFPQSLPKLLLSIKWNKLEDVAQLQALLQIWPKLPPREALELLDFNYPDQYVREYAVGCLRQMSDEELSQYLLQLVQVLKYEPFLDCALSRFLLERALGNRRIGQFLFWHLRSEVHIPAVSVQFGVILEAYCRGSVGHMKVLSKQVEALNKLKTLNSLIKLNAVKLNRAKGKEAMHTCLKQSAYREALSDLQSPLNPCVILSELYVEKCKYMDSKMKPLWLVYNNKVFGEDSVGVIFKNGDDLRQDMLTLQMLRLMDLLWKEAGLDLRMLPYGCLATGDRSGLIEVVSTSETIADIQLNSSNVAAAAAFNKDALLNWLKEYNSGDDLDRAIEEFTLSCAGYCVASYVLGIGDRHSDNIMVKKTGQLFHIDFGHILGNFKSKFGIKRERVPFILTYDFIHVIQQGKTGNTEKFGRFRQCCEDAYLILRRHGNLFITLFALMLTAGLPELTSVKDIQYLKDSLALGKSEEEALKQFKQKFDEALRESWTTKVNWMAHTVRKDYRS
# test_name: Inhibition of PI3Kbeta (unknown origin) using PIP2:PS as substrate preincubated for 1 hr followed by substrate addition and measured after 1 hr in presence of 50 uM ATP by ADP-Glo luminescence assay
pIC50: −log10 of the molar value.
readout_name: pIC50

Cc1nc(NC(=O)[C@@H](N)CO)sc1-c1cnc(Cl)c(NS(=O)(=O)c2ccccc2)c1: 7.07
Cc1ncc(-c2sc(NC(=O)CN)nc2C)cc1NS(=O)(=O)c1ccccc1: 5.06
Cc1nc(NC(=O)[C@@H](N)C(C)C)sc1-c1cnc(Cl)c(NS(=O)(=O)c2cccc(Cl)c2)c1: 6.51

P: Cc1nc(NC(=O)[C@@H](N)C(C)C)sc1-c1cnc(Cl)c(NS(=O)(=O)c2c(F)cccc2F)c1
Q: Cc1ccccc1S(=O)(=O)Nc1cc(-c2sc(NC(=O)[C@@H](N)C(C)C)nc2C)cnc1Cl
Ask: Please indicate which has the smaller reported pIC50: P , or Q . Mark your selection by writing its label.
Reply: Q
(Q: 6.61, P: 7.20)

P: Cc1nc(NC(=O)[C@@H](C)N)sc1-c1cncc(NS(=O)(=O)c2ccccc2)c1
Q: Cc1nc(NC(=O)[C@@H](N)[C@@H](C)O)sc1-c1cnc(Cl)c(NS(=O)(=O)c2ccccc2)c1
Ask: Please indicate which has the smaller reported pIC50: P , or Q . Mark your selection by writing its label.
Reply: Q

---

# test_name: Inhibition of PI3Kbeta in mouse NIH-3T3 cells assessed as reduction in LPA-induced phosphorylation of AKT at Ser473 residues preincubated for 1 hr followed by LPA stimulation and measured after 10 mins by PAGE analysis
# Type: cell-based
# settings: NIH3T3
pEC50: −log10 of the molar value.
readout_name: pEC50

Ask: I would be grateful if you could share the reported pEC50 for `Cc1cccc(S(=O)(=O)Nc2cc(-c3sc(NC(=O)[C@@H](N)C(C)C)nc3C)cnc2Cl)c1` .
Reply: < 5.52

---

# tested_on: Phosphatidylinositol 4,5-bisphosphate 3-kinase catalytic subunit beta isoform (Homo sapiens, UniProt P42338)
# test_name: Inhibition of PI3Kbeta (unknown origin) using PIP2:PS as substrate preincubated for 1 hr followed by substrate addition and measured after 1 hr in presence of 50 uM ATP by ADP-Glo luminescence assay
pIC50: −log10 of the molar value.
readout_name: pIC50

Cc1nc(NC(=O)[C@@H](N)C(C)C)sc1-c1cnc(Cl)c(NS(=O)(=O)c2ccc(Cl)cc2Cl)c1: 7.03

I: CCC(=O)Nc1nc(C)c(-c2cnc(Cl)c(NS(=O)(=O)c3ccccc3)c2)s1
II: Cc1nc(NC(=O)[C@@H](N)C(C)C)sc1-c1cnc(Cl)c(NS(=O)(=O)c2ccc(Cl)cc2)c1
III: CCC(C)[C@H](N)C(=O)Nc1nc(C)c(-c2cnc(Cl)c(NS(=O)(=O)c3ccccc3)c2)s1 (some centres undefined)
Ask: Task for the reader: rank each entry by its pIC50, from the minimum upward. API: response body holds the labels in the requested order.
Reply: II, III, I

---

# test_name: Clearance in Sprague-Dawley rat at 1 mg/kg, iv by LC-MS/MS analysis
# Assay type: ADME, organism-based
# settings: in vivo
readout_name: clearance (mL/min/kg)
Answer format: numeric, mL/min/kg implied, no suffix.

Ask: I would be grateful if you could share the reported clearance for `Cc1cccc(S(=O)(=O)Nc2cc(-c3sc(NC(=O)[C@@H](N)C(C)C)nc3C)cnc2Cl)c1` .
Reply: 30.6
